// provenance: paper PMC5379102

biological target: cage 1 (Fe^II8L6 cubic cage with zinc porphyrin faces); experiment: Ultraviolet-visible titration of cage 1 with guest (host-guest binding); conditions: pure acetonitrile, 20 °C, 1 at 1.5 μM, UV-Vis at 417 nm, non-cooperative 1:1 imidazole:porphyrin model, DynaFit fit, ± formal standard error, repeated three times; read-out: Kd (μM) in CD3CN
endpoint.label: Kd (µM)

>>> result_number("Cn1ccnc1")
30

* * *

assay: Trypsinization experiments (peptide hydrolysis by trypsin, with or without 1); assay type: in vitro ADME; details: isolated enzyme trypsin; peptide 20 μM, trypsin 6 μM (0.3 equiv.), 40% CH3CN / 50% phosphate buffer (0.1 M, pH 7.5, 0.2 M NaCl) / 10% H2O, room temperature, 30 min, RP-HPLC UV; read-out: cleavage by trypsin, single peptide, no 1
endpoint.label: metabolised at 0.5 h (%)

>>> result_number("H-SSWGHVGKYVHGWSHVS-OH [Guest G8]")
76

* * *

biological target: cage 1 (Fe^II8L6 cubic cage with zinc porphyrin faces); assay: Ultraviolet-visible titration of cage 1 with guest (host-guest binding); details: 1:1 CH3CN:H2O, 20 °C, 1 at 1.5 µM (Supplementary Figure 43), 2:1 peptide:1 model; read-out: Kd, titration at 1.5 µM cage
pKd: −log10 of the molar value. No end group written: not given here.
endpoint.label: pKd

>>> result_number("VFQFLGKIIHHVGNFVHGFSHVF [Guest G7, Clavanin A]")
7.22
